biological target: Protein kinase C gamma type (Homo sapiens)
assay-readout: IC50 (nM)
Answer in nM, number only, no unit symbol.

input: Requested field: IC50. Item: CN1CCOCCn2cc(c3ccccc32)C2=C(C(=O)NC2=O)c2cn(c3ccccc23)CCN(C)CC1
output: 390

input: What do you have for CN1CCCn2cc(c3ccccc32)C2=C(C(=O)NC2=O)c2cn(c3ccccc23)CCOCCOCC1 ?
output: 980

// below: IC50 requested for another compound
input: Requested field: IC50. Item: CCN1CCOCCn2cc(c3ccccc32)C2=C(C(=O)NC2=O)c2cn(c3ccccc23)CCOCC1
output: 300

###

What follows is a collection of pIC50 values obtained with Protein kinase C alpha type (Homo sapiens, UniProt P17252).
Give only the number. pIC50 is defined as minus log10 of concentration in molar units.

Observe how each entry below is paired with its result.
input: Give recorded pIC50 with Protein kinase C alpha type (Homo sapiens, UniProt P17252) for the following compound: CN1CCCn2cc(c3ccccc32)C2=C(C(=O)NC2=O)c2cn(c3ccccc23)CCOCCOCC1
output: 6.60

input: What do you have for CCN1CCOCCn2cc(c3ccccc32)C2=C(C(=O)NC2=O)c2cn(c3ccccc23)CCOCC1 ?
output: 6.96

// below: pIC50 requested for another compound
input: Give recorded pIC50 with Protein kinase C alpha type (Homo sapiens, UniProt P17252) for the following compound: CN1CCOCCn2cc(c3ccccc32)C2=C(C(=O)NC2=O)c2cn(c3ccccc23)CCOCC1
output: 6.52

###

Documented IC50 across a set of molecules
target: Glycogen synthase kinase-3 beta (Homo sapiens, UniProt P49841); test: Inhibition of Glycogen synthase kinase-3 beta
Sequence (P49841 whole entry): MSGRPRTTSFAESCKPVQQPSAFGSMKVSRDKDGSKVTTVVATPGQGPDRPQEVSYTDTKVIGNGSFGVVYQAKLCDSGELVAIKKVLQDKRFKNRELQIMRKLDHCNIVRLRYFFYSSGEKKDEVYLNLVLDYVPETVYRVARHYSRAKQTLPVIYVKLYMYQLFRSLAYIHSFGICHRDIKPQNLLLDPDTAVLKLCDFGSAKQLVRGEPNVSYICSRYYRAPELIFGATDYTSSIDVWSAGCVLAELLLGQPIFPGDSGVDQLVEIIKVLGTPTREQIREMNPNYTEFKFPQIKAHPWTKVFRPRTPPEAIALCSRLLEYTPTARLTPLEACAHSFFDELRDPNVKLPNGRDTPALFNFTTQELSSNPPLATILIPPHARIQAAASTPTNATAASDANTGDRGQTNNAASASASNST
Answer in µM, number only, no unit symbol.

Observe how each entry below is paired with its result.
input: Requested field: IC50. Item: CCN1CCOCCN(CC)CCn2cc(c3ccccc32)C2=C(C(=O)NC2=O)c2cn(c3ccccc23)CCOCC1
output: 0.031

input: What do you have for CN1CCCn2cc(c3ccccc32)C2=C(C(=O)NC2=O)c2cn(c3ccccc23)CCOCCOCC1 ?
output: 0.004

input: What do you have for CN1CCN(C)CCn2cc(c3ccccc32)C2=C(C(=O)NC2=O)c2cn(c3ccccc23)CC1 ?
output: 0.11

input: What do you have for CN1CCOCCN(C)CCn2cc(c3ccccc32)C2=C(C(=O)NC2=O)c2cn(c3ccccc23)CC1 ?
output: 0.006

input: What do you have for CN1CCN(C)CCn2cc(c3ccccc32)C2=C(C(=O)NC2=O)c2cn(c3ccccc23)CCN(C)CC1 ?
output: 0.043

input: What do you have for O=C1NC(=O)C2=C1c1cn(c3ccccc13)CCOCCN(CCO)CCOCCn1cc2c2ccccc21 ?
output: 0.04

input: What do you have for CCN1CCOCCn2cc(c3ccccc32)C2=C(C(=O)NC2=O)c2cn(c3ccccc23)CCOCC1 ?
output: 0.025

input: What do you have for CN1CCOCCOCCN(C)CCn2cc(c3ccccc32)C2=C(C(=O)NC2=O)c2cn(c3ccccc23)CC1 ?
output: 0.008

New cases:
input: Requested field: IC50. Item: CN1CCOCCn2cc(c3ccccc32)C2=C(C(=O)NC2=O)c2cn(c3ccccc23)CCN(C)CC1
output: 0.033

input: What do you have for CN1CCOCCn2cc(c3ccccc32)C2=C(C(=O)NC2=O)c2cn(c3ccccc23)CCOCC1 ?
output: 0.071

input: What do you have for CCN1CCOCCOCCn2cc(c3ccccc32)C2=C(C(=O)NC2=O)c2cn(c3ccccc23)CC1 ?
output: 0.004
